5-HT2A [%] values by entry
# targetDesc: 5-HT2A receptor (Homo sapiens, UniProt P28223)
# Construct: purchased PerkinElmer
# Sequence (P28223 whole entry): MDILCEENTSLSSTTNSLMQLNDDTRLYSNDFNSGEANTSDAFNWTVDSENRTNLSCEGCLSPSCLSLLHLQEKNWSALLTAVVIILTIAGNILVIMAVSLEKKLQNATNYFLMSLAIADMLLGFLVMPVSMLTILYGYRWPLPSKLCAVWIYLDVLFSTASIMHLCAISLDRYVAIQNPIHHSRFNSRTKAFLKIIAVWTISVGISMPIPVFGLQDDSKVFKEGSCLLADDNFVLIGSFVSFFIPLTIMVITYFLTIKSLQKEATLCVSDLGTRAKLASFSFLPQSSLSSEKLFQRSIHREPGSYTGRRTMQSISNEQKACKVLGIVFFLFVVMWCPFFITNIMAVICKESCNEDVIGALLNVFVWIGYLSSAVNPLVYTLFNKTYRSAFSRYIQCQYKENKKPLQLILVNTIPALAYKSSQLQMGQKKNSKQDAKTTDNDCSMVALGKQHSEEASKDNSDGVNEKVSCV
# assay: Radioligand binding assay, serotoninergic 5-HT2A receptors
# protocolConditions: binding assay result in %, Table 5a
Kindly provide the numeric value in % only, without the unit symbol.

# count of solved cases: 6
{"compound": "Cc1cccc(S(=O)(=O)NC2CCN(CCOc3cccc4[nH]ccc34)CC2)c1 [Compound 56]", "readoutUnit": "%", "testResult": 84}
{"compound": "O=S(=O)(NC1CCN(CCCc2noc3cc(F)ccc23)CC1)c1ccc2ccccc2c1 [Compound 35]", "readoutUnit": "%", "testResult": 91}
{"compound": "O=S(=O)(NCC1CCN(CCCc2noc3cc(F)ccc23)CC1)c1cccc2ccccc12 [Compound 37]", "readoutUnit": "%", "testResult": 56}
{"compound": "O=S(=O)(NC1CCN(CCOc2cccc3c2OCCO3)C1)c1cccc2ccccc12 (centres unmarked) [Compound 98]", "readoutUnit": "%", "testResult": 87}
{"compound": "O=S(=O)(NC1CN(CCOc2cccc3c2OCCO3)C1)c1ccc(Cl)cc1 [Compound 92]", "readoutUnit": "%", "testResult": 60}
{"compound": "O=S(=O)(NC1CCN(CCOc2cccc3c2OCCO3)CC1)c1ccccc1 [Compound 117]", "readoutUnit": "%", "testResult": 86}

Please tell me: 5-HT2A [%] of CC1(C)Cc2cccc(OCCN3CCC(NS(=O)(=O)c4ccc5ccccc5c4)CC3)c2O1 [Compound 110] , system 5-HT2A receptor (Homo sapiens, UniProt P28223)? 91

Please tell me: 5-HT2A [%] of O=S(=O)(NC1CCN(CCOc2cccc3[nH]ccc23)CC1)c1cccc2ccccc12 [Compound 60] , system 5-HT2A receptor (Homo sapiens, UniProt P28223)? 76

Please tell me: 5-HT2A [%] of O=S(=O)(NC1CCN(CCOc2cccc3[nH]ccc23)CC1)c1ccccc1 [Compound 55] , system 5-HT2A receptor (Homo sapiens, UniProt P28223)? 94

Please tell me: 5-HT2A [%] of Cc1cccc(S(=O)(=O)NC2CCN(CCCc3noc4cc(F)ccc34)CC2)c1 [Compound 33] , system 5-HT2A receptor (Homo sapiens, UniProt P28223)? 97

Please tell me: 5-HT2A [%] of Cc1cccc(S(=O)(=O)NC2CCN(CCOc3cccc4c3OCCO4)C2)c1 (centres unmarked) [Compound 97] , system 5-HT2A receptor (Homo sapiens, UniProt P28223)? 89

Please tell me: 5-HT2A [%] of CC1(C)Cc2cccc(OCCN3CCC(NS(=O)(=O)c4cccc(O)c4)CC3)c2O1 [Compound 109] , system 5-HT2A receptor (Homo sapiens, UniProt P28223)? 95

Please tell me: 5-HT2A [%] of O=S(=O)(NC1CN(CCOc2cccc3c2OCCO3)C1)c1ccccc1 [Compound 88] , system 5-HT2A receptor (Homo sapiens, UniProt P28223)? 34

Please tell me: 5-HT2A [%] of O=S(=O)(NC1CCN(CCOc2cccc3ccccc23)CC1)c1cccc(O)c1 [Compound 119] , system 5-HT2A receptor (Homo sapiens, UniProt P28223)? 69

Please tell me: 5-HT2A [%] of Cc1cccc(S(=O)(=O)NC2CCN(CCOc3cccc4c3OCCO4)CC2)c1 [Compound 118] , system 5-HT2A receptor (Homo sapiens, UniProt P28223)? 83

Please tell me: 5-HT2A [%] of O=S(=O)(NC1CCN(CCCc2noc3cc(F)ccc23)CC1)c1ccccc1 [Compound 32] , system 5-HT2A receptor (Homo sapiens, UniProt P28223)? 83

Please tell me: 5-HT2A [%] of O=S(=O)(NC1CCN(CCOc2cccc3[nH]ccc23)CC1)c1ccc2ccccc2c1 [Compound 61] , system 5-HT2A receptor (Homo sapiens, UniProt P28223)? 92
